Test: qHTS assay to identify small molecule antagonists of the estrogen related receptor (ERR) signaling pathway from Tox21 library (AID 1224848); further: nearly all actives have a fitted effect of over 50% in size
Conditions: ERR reporter cell line, luciferase antagonist mode, 18 h; series mostly up to 92.4 µM
From the text: U.S. Tox21 Program National Center for Advancing Translational Sciences [NCATS] NIH Chemical Genomics Center [NCGC] U.S. Environmental Protection Agency [EPA] National Institutes of Environmental Health Sciences [NIEHS] National Toxicology Program [NTP] U.S. Food and Drug Administration [FDA] Tox21 Assay Overview: Estrogen related receptors (ERRs), the first orphan nuclear receptors discovered, play an important role in the control of cellular energy metabolism. […]
Records with an inconclusive call do not appear. Activity calls are given as the source filed them. The call rests on the fitted dose curve; in most records, active means well fitted inhibition curve with a large enough effect in the repeat runs; inconclusive means weak or mixed curves; inactive means no such curve, though single readings can be large or run the other way.
Pick one: YES for active, NO for inactive

In this assay, the call recorded for `CCOC(=O)COc1cc(-c2nn(C)c(OC(F)F)c2Cl)c(F)cc1Cl` was what? NO

In this assay, the call recorded for `CCCN(CCCl)c1c([N+](=O)[O-])cc(C(F)(F)F)cc1[N+](=O)[O-]` was what? NO

In this assay, the call recorded for `Cl/C=C\C[N+]12CN3CN(CN(C3)C1)C2` was what? NO

In this assay, the call recorded for CC/C(=N\OC/C=C/Cl)C1=C(O)CC(C2CCOCC2)CC1=O (configuration not stated) was what? NO

In this assay, the call recorded for `Clc1cc(C(Cl)(Cl)Cl)cnc1Cl` was what? NO

In this assay, the call recorded for CC1Sc2c(C(=O)O)c(=O)c3cc(F)c(N4CCNCC4)cc3n21 (configuration not stated) was what? NO

In this assay, the call recorded for `Cc1ccc(N)cc1C` was what? NO

In this assay, the call recorded for `C[C@H]1CNCCc2ccc(Cl)cc21` was what? NO

In this assay, the call recorded for `C[C@@H]1CC[C@H]2[C@@H](C)C(=O)O[C@@H]3O[C@@]4(C)CC[C@@H]1[C@]32OO4` was what? YES

In this assay, the call recorded for `C(=NC1CCCCC1)=NC1CCCCC1` was what? YES

In this assay, the call recorded for Clc1ccc(C2(Cn3cncn3)CC(Br)CO2)c(Cl)c1 (configuration not stated) was what? YES

In this assay, the call recorded for `C=CCN1CC[C@]23c4c5ccc(O)c4O[C@H]2C(=O)CC[C@@]3(O)[C@H]1C5` was what? NO

----------
Test: Human pregnane X receptor (PXR) small molecule agonists, qHTS cell viability counter screen (AID 1346977); further: nearly all actives have a fitted effect of over 50% in size
Conditions: PXR-Luc HepG2 viability, CellTiter-Fluor, 24 h; series mostly up to 92.4 µM
Inconclusive results are not listed. Calls of active or inactive are those of the source. The call rests on the fitted dose curve; in most records, active means well fitted cell-killing curve with a large enough effect in the repeat runs; inconclusive means weak or mixed curves, or effect the other way; inactive means flat fitted curve, though single readings scatter.
Pick one: active, inactive

In this assay, the call recorded for `CC(C)(C)c1cc([N+](=O)[O-])cc([N+](=O)[O-])c1O` was what? active

In this assay, the call recorded for `C=COC(C)=O` was what? inactive

In this assay, the call recorded for `O=Cc1ccc(Cl)cc1Cl` was what? inactive

In this assay, the call recorded for `CCc1ccc(C(=O)NN(C(=O)c2cc(C)cc(C)c2)C(C)(C)C)cc1` was what? inactive

In this assay, the call recorded for `O=C(O)COc1ccc(Cl)cc1` was what? inactive

In this assay, the call recorded for `c1ccoc1` was what? inactive

In this assay, the call recorded for `O=C1CN=C(c2ccccc2)c2cc(Cl)ccc2N1CC1CC1` was what? inactive

In this assay, the call recorded for `CC(=O)C(C)(C)C` was what? inactive

In this assay, the call recorded for `CCOC(=O)COc1cc(-c2nn(C)c(OC(F)F)c2Cl)c(F)cc1Cl` was what? inactive

In this assay, the call recorded for `O=[N+]([O-])C(Br)(CO)CO` was what? inactive

In this assay, the call recorded for `CCCCCC[N+](=O)[O-]` was what? inactive

In this assay, the call recorded for `Brc1ccccc1` was what? inactive

In this assay, the call recorded for `CC(=O)CCC(C)=O` was what? inactive

In this assay, the call recorded for CC(=O)c1cc2c(cc1C)C(C)(C)C(C)CC2(C)C (stereo not given) was what? inactive

In this assay, the call recorded for `Brc1ccc(Oc2ccccc2)cc1` was what? inactive

In this assay, the call recorded for `N#C/C(N)=C(/N)C#N` was what? inactive

In this assay, the call recorded for `C=CCN1CC[C@]23c4c5ccc(O)c4O[C@H]2C(=O)CC[C@@]3(O)[C@H]1C5` was what? inactive

In this assay, the call recorded for `O=S(=O)(Cl)c1ccccc1` was what? inactive

In this assay, the call recorded for `C=CC(=O)OCCCCO` was what? inactive

In this assay, the call recorded for CCC(COC(=O)c1cc(OC)c(OC)c(OC)c1)(c1ccccc1)N(C)C (stereo not given) was what? inactive

In this assay, the call recorded for CCCCC(CC)COP(=O)(Oc1ccccc1)Oc1ccccc1 (stereo not given) was what? inactive

In this assay, the call recorded for `O=C(CBr)c1ccccc1` was what? inactive

In this assay, the call recorded for Cc1c(F)c(F)c(COC(=O)C2C(/C=C(\Cl)C(F)(F)F)C2(C)C)c(F)c1F (stereo not given) was what? inactive

In this assay, the call recorded for `Cc1ccc(N)cc1C` was what? inactive

In this assay, the call recorded for `ClCc1ccccc1` was what? inactive

In this assay, the call recorded for `Cc1ccc(-c2c(Cl)nc(C#N)n2S(=O)(=O)N(C)C)cc1` was what? active

In this assay, the call recorded for `CCCCCCCCCCOC(=O)c1ccccc1C(=O)OCCCCCCCCCC` was what? inactive

In this assay, the call recorded for `C=CC(=O)NCNC(=O)C=C` was what? inactive

In this assay, the call recorded for `COC(=O)C(Cl)C(=O)OC` was what? inactive

In this assay, the call recorded for `CCCC(=O)Cl` was what? inactive

----------
Assay: qHTS assay to identify small molecule antagonists of the sonic hedgehog signaling (Shh) pathway (AID 1259369); further: nearly all actives have a fitted effect of over 45% in size
Conditions: NIH/3T3 Gli1-Luc reporter, Shh antagonist, luminescence 24 h; series mostly up to 92.4 µM
Records with an inconclusive call do not appear. Active and inactive are the calls of the source. The call rests on the fitted dose curve.
Pick one: true (1) = active, false (0) = inactive

In this assay, the call recorded for `CC(C)(Cl)[N+](=O)[O-]` was what? false (0)

In this assay, the call recorded for `Nc1ccc([N+](=O)[O-])cc1[N+](=O)[O-]` was what? false (0)

In this assay, the call recorded for `O=C(N[C@H](c1ccccc1)[C@@H]1CN2CCC1CC2)c1c(Cl)ccc(C(F)(F)F)c1Cl` was what? true (1)

In this assay, the call recorded for `Brc1ccccc1` was what? false (0)

In this assay, the call recorded for `CC1(C)[C@H](C=C(Cl)Cl)[C@@H]1C(=O)O[C@@H](C#N)c1cccc(Oc2ccccc2)c1` was what? false (0)

In this assay, the call recorded for `COC(=O)C(Cl)C(=O)OC` was what? false (0)

In this assay, the call recorded for `[O-][Cl+]O` was what? false (0)

In this assay, the call recorded for `O=C(Nc1ccccc1)Nc1ccnc(Cl)c1` was what? true (1)

In this assay, the call recorded for `II` was what? false (0)

In this assay, the call recorded for `NS(=O)(=O)C(F)(F)C(F)(F)C(F)(F)C(F)(F)C(F)(F)C(F)(F)C(F)(F)C(F)(F)F` was what? false (0)

In this assay, the call recorded for `CCOP(O)OCC` was what? false (0)

In this assay, the call recorded for `O=C1c2ccccc2C(=O)C1C(=O)C(c1ccccc1)c1ccccc1` was what? false (0)

In this assay, the call recorded for `C=CC(=O)OCC(C)C` was what? false (0)

----------
Assay: qHTS RealTime-Glo MT Cell Viability Assay in HepG2 cells - 24 hour (AID 1224867); further: nearly all actives have a fitted effect of over 50% in size
Details: RealTime-Glo luminescence; series mostly up to 76.8 µM
Inconclusive results are not listed. The source made the active and inactive calls. Calls follow the shape of the dose curve; as a rule, active = well fitted cell-killing curve with a large enough effect in the repeat runs; inconclusive = weak or mixed curves; inactive = flat fitted curve, though single readings scatter.
Pick one: active, inactive

In this assay, the call recorded for `O=Cc1ccc(Cl)cc1Cl` was what? inactive

In this assay, the call recorded for `CCCCCC[N+](=O)[O-]` was what? inactive

In this assay, the call recorded for `NC(=O)C(Cl)(Cl)Cl` was what? inactive

In this assay, the call recorded for Clc1ccc(C(OCCN2CCCCC2)c2ccccc2)cc1 (stereo unspecified) was what? inactive

In this assay, the call recorded for `IC(I)=C(I)I` was what? active

In this assay, the call recorded for `CC(C)O.CC(C)O.OCCN(CCO)CCO.OCCN(CCO)CCO.[Ti]` was what? inactive

In this assay, the call recorded for `NNC(=O)c1cccnc1` was what? inactive

In this assay, the call recorded for CC(Cl)C(C)Cl (stereo unspecified) was what? inactive

In this assay, the call recorded for `O=NN1CCCCCC1` was what? inactive

In this assay, the call recorded for `CCCN(CCCl)c1c([N+](=O)[O-])cc(C(F)(F)F)cc1[N+](=O)[O-]` was what? inactive

In this assay, the call recorded for `COP(=S)(OC)Oc1cc(Cl)c(I)cc1Cl` was what? inactive

In this assay, the call recorded for `NS(=O)(=O)C(F)(F)C(F)(F)C(F)(F)C(F)(F)C(F)(F)C(F)(F)C(F)(F)C(F)(F)F` was what? inactive

In this assay, the call recorded for `CCOC(=O)[C@]1(c2ccccc2)Oc2ccccc2[C@@H]1N` was what? inactive

In this assay, the call recorded for `Cn1sc(Cl)cc1=O` was what? inactive

In this assay, the call recorded for `CCCCCCC#N` was what? inactive

In this assay, the call recorded for `CC(c1ccc(O)cc1)(c1ccc(O)cc1)c1ccc(O)cc1` was what? inactive

In this assay, the call recorded for `O=C1CN=C(c2ccccc2)c2cc(Cl)ccc2N1CC1CC1` was what? inactive

In this assay, the call recorded for `CCn1cc[n+](C)c1` was what? inactive

In this assay, the call recorded for `C=CCCl` was what? inactive

In this assay, the call recorded for `NCCCNCCCN` was what? inactive

In this assay, the call recorded for `C=CC(=O)NCNC(=O)C=C` was what? inactive

In this assay, the call recorded for `Clc1cccc2ccccc12` was what? inactive

In this assay, the call recorded for `COc1nn(CSP(=S)(OC)OC)c(=O)s1` was what? inactive

In this assay, the call recorded for `C=CC(=O)OC` was what? inactive

In this assay, the call recorded for `CCCCNP(N)(N)=S` was what? inactive

In this assay, the call recorded for `Clc1cc(C(Cl)(Cl)Cl)cnc1Cl` was what? inactive

In this assay, the call recorded for `O=[Se]=O` was what? inactive

In this assay, the call recorded for `c1ccc(CN2CCNCC2)cc1` was what? inactive

In this assay, the call recorded for `OCCCBr` was what? inactive

In this assay, the call recorded for `COC(=O)C(Cl)C(=O)OC` was what? inactive

In this assay, the call recorded for `CCO[C@H]1O[C@@H]2OC3(C)CC[C@H]4[C@H](C)CC[C@@H]([C@H]1C)[C@@]24OO3` was what? inactive

src = PubChem BioAssay (Tox21)
